assay: physchem; conditions: organic solvent or mixture, thermodynamic from solid, solubility
QUANTITY: solubility

Query block: Fill in solubility for record CN1C(C(=O)Nc2ccccn2)=C(O)c2ccccc2S1(=O)=O [Piroxicam]
Result block: 2.9 to 3.2 mg/mL

###

assay: physchem; conditions: organic solvent or mixture, thermodynamic from solid, maximum solubility
QUANTITY: solubility (mg/mL)
Record the value in mg/mL, omitting the unit from your answer.

Query block: Fill in solubility for record COc1ccc2c(c1)c(CC(=O)O)c(C)n2C(=O)c1ccc(Cl)cc1
Result block: 160
